tested on: Escherichia coli IAI1; assay: fold change of Putrescine concentration vs plate DMSO controls (fold change (ratio)); higher = more amine produced, active = hit call of the paper (significant change in both replicates, either direction); details: incubation time: 27 h, anaerobic, 37 °C;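 for the amine columns active = adjusted P below 0.05 in both replicates with a change the same way and a mean fold change under 0.8 or over 1.25; inactive = the rest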
Structures can show the parent of a compound that is named as a salt.
Answer with one of the outcomes given here: y for active, n for inactive

Known results for compounds:
{"columns": ["compound", "cat"],
 "data": [
  ["CCc1c2c(nc3ccc(OC(=O)N4CCC(N5CCCCC5)CC4)cc13)-c1cc3c(c(=O)n1C2)COC(=O)[C@]3(O)CC [Irinotecan hydrochloride trihydrate] (20 µM)", "n"],
  ["NC(=O)Cc1cccc(C(=O)c2ccccc2)c1N [Nepafenac] (20 µM)", "n"],
  ["Cc1ccccc1C(OCCN(C)C)c1ccccc1 (stereo not given) [Orphenadrine hydrochloride] (20 µM)", "n"],
  ["CC[N+](C)(CC)CCC[n+]1c(-c2ccccc2)c2cc(N)ccc2c2ccc(N)cc21 [Propidium iodide] (20 µM)", "n"],
  ["CCCCC1C(=O)N(c2ccccc2)N(c2ccccc2)C1=O [Phenylbutazone] (20 µM)", "n"],
  ["O=C(NCCNCC(O)COc1ccc(O)cc1)N1CCOCC1 (stereo not given) [Xamoterol hemifumarate] (20 µM)", "n"],
  ["NC12CC3CC(CC(C3)C1)C2 [Adamantamine fumarate] (20 µM)", "n"],
  ["CCOc1ccc2nc(S(N)(=O)=O)sc2c1 [Ethoxzolamide] (20 µM)", "n"]
]}

# ---- query compound ----
[ask] Query: recorded result category for CCOC(=O)c1ccc(OC(=O)CCCCCNC(=N)N)cc1 [Gabexate mesilate] (20 µM) in this test
[reply] n

----------
tested on: Escherichia coli IAI1; assay: fold change of Putrescine concentration vs plate DMSO controls (fold change (ratio)); higher = more amine produced, active = hit call of the paper (significant change in both replicates, either direction); settings: incubation time: 27 h, anaerobic, 37 °C
Structures can show the parent of a compound that is named as a salt.
measureName: fold change of Putrescine concentration
Please give the numeric answer without any surrounding text.

{"columns": ["compound", "fold change of Putrescine concentration"],
 "data": [
  ["C=CCSCC1Nc2cc(Cl)c(S(N)(=O)=O)cc2S(=O)(=O)N1 (configuration not stated) [Althiazide] (20 µM)", 1.21],
  ["COCC1=C(C(=O)OC(C)OC(=O)OC(C)C)N2C(=O)[C@@H](NC(=O)/C(=N\\OC)c3csc(N)n3)[C@H]2SC1 (some centres not stated) [Cefpodoxime proxetil] (20 µM)", 0.972],
  ["NCc1ccc(S(N)(=O)=O)cc1 [Mafenide hydrochloride] (20 µM)", 1],
  ["c1ccc2c(c1)ccc1ccccc12 [Phenanthrene] (20 µM)", 0.992]
]}

Next up:
[ask] Provide one value: measured fold change of Putrescine concentration of Cc1cccc(C)c1OCC(=O)N[C@@H](Cc1ccccc1)[C@@H](O)C[C@H](Cc1ccccc1)NC(=O)[C@H](C(C)C)N1CCCNC1=O [Lopinavir] (20 µM)
[reply] 0.989

----------
test system: Klebsiella aerogenes DSM 30053; assay: fold change of Histamine concentration vs plate DMSO controls (fold change (ratio)); higher = more amine produced, active = hit call of the paper (significant change in both replicates, either direction); details: incubation time: 27 h, anaerobic, 37 °C;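 for the amine columns active = adjusted P below 0.05 in both replicates with a change the same way and a mean fold change under 0.8 or over 1.25; inactive = the rest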
Answer with one of the outcomes given here: active, inactive

Known results for compounds:
{"columns": ["compound", "cat"],
 "data": [
  ["COc1ccc(-c2cc(=S)ss2)cc1 [Anethole-trithione] (20 µM)", "inactive"],
  ["C[C@H]1COc2c(N3CCN(C)CC3)c(F)cc3c(=O)c(C(=O)O)cn1c23 [Levofloxacin] (20 µM)", "active"]
]}

[ask] Query: recorded result category for C[C@@H]1C[C@H]2[C@@H]3C[C@H](F)C4=CC(=O)C=C[C@]4(C)[C@@]3(F)[C@@H](O)C[C@]2(C)[C@@]1(O)C(=O)COC(=O)C(C)(C)C [Flumethasone pivalate] (20 µM) in this test
[reply] inactive

[ask] Query: recorded result category for COc1cc(N)cn[n+]1-c1ccccc1 [Amezinium metilsulfate] (20 µM) in this test
[reply] inactive

[ask] Query: recorded result category for O=C(O)C[C@H](O)C[C@H](O)/C=C/c1c(C2CC2)nc2ccccc2c1-c1ccc(F)cc1 [Pitavastatin calcium] (20 µM) in this test
[reply] inactive

----------
Below, each of the compounds is paired with its reported growth value.
tested on: Clostridium sporogenes DSM 1664; assay: growth (OD595) fold change vs plate DMSO controls (fold change (ratio)); higher = more growth; conditions: incubation time: 27 h, anaerobic, 37 °C
Structures can show the parent of a compound that is named as a salt.

// solved cases for growth follow
{"columns": ["compound", "testSystem", "growth"],
 "data": [
  ["CC(C)Cc1ccc(C(C)C(=O)OCc2ccccn2)cc1 (stereo unspecified) [Ibuprofen Piconol] (20 µM)", "Clostridium sporogenes DSM 1664", 0.967],
  ["CNCCC(Oc1ccc(C(F)(F)F)cc1)c1ccccc1 (stereo unspecified) [Fluoxetine hydrochloride] (20 µM)", "Clostridium sporogenes DSM 1664", 1.18],
  ["CCN1CCCC1CNC(=O)c1cc(S(=O)(=O)CC)c(N)cc1OC (stereo unspecified) [Amisulpride] (20 µM)", "Clostridium sporogenes DSM 1664", 1.16],
  ["Cc1c(O)c(=O)ccn1C [Deferiprone] (20 µM)", "Clostridium sporogenes DSM 1664", 1]
]}

[ask] Provide one value: measured growth of O=C(COc1ccc(Cl)cc1)N1CCN(Cc2ccc3c(c2)OCO3)CC1 [Fipexide hydrochloride] (20 µM)
[reply] 1.05

[ask] Provide one value: measured growth of CN(Cc1cc(Br)cc(Br)c1N)C1CCCCC1 [Bromhexine hydrochloride] (20 µM)
[reply] 0.942

----------
Below, each of the compounds is paired with its reported fold change of Cadaverine concentration value.
system: Escherichia coli IAI1; assay: fold change of Cadaverine concentration vs plate DMSO controls (fold change (ratio)); higher = more amine produced, active = hit call of the paper (significant change in both replicates, either direction); details: incubation time: 27 h, anaerobic, 37 °C
Structures can show the parent of a compound that is named as a salt.

// solved cases for fold change of Cadaverine concentration follow
{"columns": ["compound", "fold change of Cadaverine concentration"],
 "data": [
  ["COC(=O)Nc1nc2cc(C(=O)c3ccccc3)ccc2[nH]1 [Mebendazole] (20 µM)", "0.998 (inactive)"],
  ["CN1CCN2c3ccccc3Cc3ccccc3C2C1 (stereo not given) [Mianserine hydrochloride] (20 µM)", "0.999 (inactive)"],
  ["O=P(O)(O)C(O)(Cc1cccnc1)P(=O)(O)O [Risedronic acid monohydrate] (20 µM)", "0.97 (inactive)"],
  ["CN(C)CCCN1c2ccccc2CCc2ccc(Cl)cc21 [Clomipramine hydrochloride] (20 µM)", "1.06 (inactive)"]
]}

[ask] Report its fold change of Cadaverine concentration with Escherichia coli IAI1 as the test system: CN(C)CCCC1(c2ccc(F)cc2)OCc2cc(C#N)ccc21 (stereo not given) [Citalopram hydrobromide] (20 µM)
[reply] 0.991 (inactive)

[ask] Report its fold change of Cadaverine concentration with Escherichia coli IAI1 as the test system: CC(C)Oc1ccc2c(=O)c(-c3ccccc3)coc2c1 [Ipriflavone] (20 µM)
[reply] 1.04 (inactive)

[ask] Report its fold change of Cadaverine concentration with Escherichia coli IAI1 as the test system: CCCCOCCOCCOCc1cc2c(cc1CCC)OCO2 [Piperonyl butoxide] (20 µM)
[reply] 0.972 (inactive)

[ask] Report its fold change of Cadaverine concentration with Escherichia coli IAI1 as the test system: COc1nc(N)nc2c1ncn2[C@@H]1O[C@H](CO)[C@@H](O)[C@@H]1O [Nelarabine] (20 µM)
[reply] 0.989 (inactive)

[ask] Report its fold change of Cadaverine concentration with Escherichia coli IAI1 as the test system: O=C(c1ccccc1)c1ccc2n1CCC2C(=O)O (stereo not given) [Ketorolac tromethamine] (20 µM)
[reply] 1.07 (inactive)

[ask] Report its fold change of Cadaverine concentration with Escherichia coli IAI1 as the test system: CC(C)(C#N)c1cc(Cn2cncn2)cc(C(C)(C)C#N)c1 [Anastrozole] (20 µM)
[reply] 1.01 (inactive)

[ask] Report its fold change of Cadaverine concentration with Escherichia coli IAI1 as the test system: CN(C)CC/C=C1/c2ccccc2Sc2ccc(Cl)cc21 [Chlorprothixene hydrochloride] (20 µM)
[reply] 1.03 (inactive)

[ask] Report its fold change of Cadaverine concentration with Escherichia coli IAI1 as the test system: Nc1c(CC(=O)O)cccc1C(=O)c1ccc(Br)cc1 [Bromfenac] (20 µM)
[reply] 0.911 (inactive)

[ask] Report its fold change of Cadaverine concentration with Escherichia coli IAI1 as the test system: CC1=C(C(=O)O)N2C(=O)[C@@H](NC(=O)[C@H](N)C3=CCC=CC3)[C@H]2SC1 [Cephradine monohydrate] (20 µM)
[reply] 0.921 (inactive)

[ask] Report its fold change of Cadaverine concentration with Escherichia coli IAI1 as the test system: NC(=O)c1ncn([C@@H]2O[C@H](CO)[C@@H](O)[C@H]2O)c1O [Mizoribine] (20 µM)
[reply] 0.997 (inactive)

[ask] Report its fold change of Cadaverine concentration with Escherichia coli IAI1 as the test system: Cc1cc(=O)n(-c2ccccc2)n1C [Antipyrine] (20 µM)
[reply] 1.01 (inactive)

[ask] Report its fold change of Cadaverine concentration with Escherichia coli IAI1 as the test system: CCOc1ccccc1OC(c1ccccc1)C1CNCCO1 (stereo not given) [Reboxetine mesylate] (20 µM)
[reply] 0.926 (inactive)

[ask] Report its fold change of Cadaverine concentration with Escherichia coli IAI1 as the test system: O=C1CC2(CCCC2)CC(=O)N1CCCCN1CCN(c2ncccn2)CC1 [Buspirone hydrochloride] (20 µM)
[reply] 1.05 (inactive)

[ask] Report its fold change of Cadaverine concentration with Escherichia coli IAI1 as the test system: O=C(CCCCCCC(=O)Nc1ccccc1)NO [Vorinostat] (20 µM)
[reply] 0.99 (inactive)

[ask] Report its fold change of Cadaverine concentration with Escherichia coli IAI1 as the test system: CCCN(CCC)C(=O)C(CCC(=O)O)NC(=O)c1ccccc1 (stereo not given) [Proglumide] (20 µM)
[reply] 0.929 (inactive)

[ask] Report its fold change of Cadaverine concentration with Escherichia coli IAI1 as the test system: CC1CC(OC(=O)c2ccccc2O)CC(C)(C)C1 (stereo not given) [Homosalate] (20 µM)
[reply] 1 (inactive)

[ask] Report its fold change of Cadaverine concentration with Escherichia coli IAI1 as the test system: CN[C@@H]1[C@H](O[C@H]2[C@H](O[C@H]3[C@H](O)[C@@H](O)[C@H](NC(=N)N)[C@@H](O)[C@@H]3NC(=N)N)O[C@@H](C)[C@]2(O)CO)O[C@@H](CO)[C@H](O)[C@H]1O [Dihydrostreptomycin sulfate] (20 µM)
[reply] 1.01 (inactive)

[ask] Report its fold change of Cadaverine concentration with Escherichia coli IAI1 as the test system: Cc1ccc(S(=O)(=O)NCl)cc1 [Chloramine-T hydrate] (20 µM)
[reply] 1.01 (inactive)

[ask] Report its fold change of Cadaverine concentration with Escherichia coli IAI1 as the test system: CCN(CC)CCOC(=O)C(c1ccccc1)c1ccccc1 [Adiphenine hydrochloride] (20 µM)
[reply] 1.01 (inactive)

[ask] Report its fold change of Cadaverine concentration with Escherichia coli IAI1 as the test system: COc1ccccc1OCCNCC(O)COc1cccc2[nH]c3ccccc3c12 (stereo not given) [Carvedilol] (20 µM)
[reply] 1.02 (inactive)

[ask] Report its fold change of Cadaverine concentration with Escherichia coli IAI1 as the test system: CCC(Cc1c(I)cc(I)c(N)c1I)C(=O)O (stereo not given) [Iopanoic acid] (20 µM)
[reply] 1.04 (inactive)

Values compiled from the supplement of paper PMC12494721.
